Assay: Plasma stability, human plasma (K2EDTA)
Assay type: in vitro ADME
Conditions: human, plasma, pH 7.4
Procedure: Individual stock solutions of propantheline and lovastatin were prepared at 10 mM in DMSO and were further diluted to 2 mM with DMSO. […] Data Analysis: Peak area ratios for IS-normalized test article and control article counts were used to calculate the percent remaining relative to the time zero (T0) value. As appropriate, results were plotted and further analyzed to calculate half-life (T1/2) values. […]
Experimental Endpoint: half-life at 2 μM
Form field: result (number plus unit)

Reported half-life at 2 μM for CC(C)[N+](C)(CCOC(=O)C1c2ccccc2Oc2ccccc21)C(C)C [Propantheline, reference compound] was 56.6 min
